The entries below are paired with their reported AUMCExtra.
experiment: Pharmacokinetic evaluation in plasma after IV and PO administration; assay type: in vivo; settings: female Balb/c mice, IV 2 mg/kg
Lab book: enter the figure in %, no units written.

// solved cases for AUMCExtra follow
* C[C@H]1COCCN1c1nc(N2CCOC3(CC3)C2)nc2nc(-c3cccc(C(N)=O)c3)ccc12 | 0.400
* CNC(=O)c1cccc(-c2ccc3c(N4CCOC[C@@H]4C)nc(N4CCOC5(CC5)C4)nc3n2)c1 | 1.27
* CNC(=O)c1cccc(-c2ccc3c(N4CCOC[C@@H]4C)nc(N4CCOC[C@@H]4C)nc3n2)c1 [AZD2014, reference compound] | 2.95

--- query ---
What value of AUMCExtra has been reported for the following molecule? CNC(=O)c1cccc(-c2ccc3c(N4CCOC[C@@H]4C)nc(N4CCOC5(CCC5)C4)nc3n2)c1
0.616
